Just for reference, ChEMBL document CHEMBL1201862 is where these values come from.

- target-entity: Eukaryotic translation initiation factor 4E (Mus musculus)
- Sequence (P63073 whole entry): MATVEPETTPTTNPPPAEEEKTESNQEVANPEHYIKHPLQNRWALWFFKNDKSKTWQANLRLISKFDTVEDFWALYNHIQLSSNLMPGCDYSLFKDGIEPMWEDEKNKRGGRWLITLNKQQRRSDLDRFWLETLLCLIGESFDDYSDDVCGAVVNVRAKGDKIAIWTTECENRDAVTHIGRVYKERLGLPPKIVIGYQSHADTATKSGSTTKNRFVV
- experiment-notes: eIF4E–eIF4G protein interaction inhibitors, dose response, biochemical, TR-FRET (AID 855);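 also: potency for disrupting eIF4E binding to eIF4GI seen as loss of FRET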
- Assay type: functional
The source made the active and inactive calls.
Listing of recorded IC50 by entry.
property-measured: IC50

molecule	assay-value
COCCSc1ccccc1C(=O)Nc1cc(C)on1	> 64 µM (inactive)
Cc1c(NC(=O)c2cc(CC(C)C)on2)c(=O)n(-c2ccccc2)n1C	> 64 µM (inactive)
CC1=C(C#N)C(=O)NC(=O)/C1=C\c1ccc(-c2ccc(C)cc2[N+](=O)[O-])o1	50 µM (inactive)
COc1ccc(N2CCN(C(=O)CCNC(=O)Cn3ccc4ccccc4c3=O)CC2)cc1	50 µM (inactive)
COc1ccc(NC(=S)NC2CCS(=O)(=O)C2)cc1 (stereo unspecified)	> 64 µM (inactive)
COc1ccc(N2C(=O)/C(=C/C=C/c3ccccc3[N+](=O)[O-])C(=O)NC2=S)cc1	50 µM (inactive)

* * *

- target-entity: Genome polyprotein (dengue virus type 2, UniProt P29990)
- experiment-notes: Dengue-2 NS5 methyltransferase inhibitors, primary screen, biochemical, confirmation dose response (AID 588689)
- Type: functional
Active and inactive are the calls of the source.
property-measured: IC50

molecule	target-entity	property-measured	assay-value
Oc1ccc(/C=N/N2CCOCC2)c(O)c1O	Genome polyprotein (dengue virus type 2, UniProt P29990)	IC50	45 µM (active)
CCOc1ccc(N2C(=O)C(Cl)=C(N3CCOCC3)C2=O)cc1	Genome polyprotein (dengue virus type 2, UniProt P29990)	IC50	29.4 µM (active)
CCOC(=O)c1c(-c2cccc(C)c2)csc1NC(=O)C1CC=CCC1C(=O)O (configuration not stated)	Genome polyprotein (dengue virus type 2, UniProt P29990)	IC50	61 µM (active)
COC(=O)c1sc(-c2ccc(C(C)(C)C)cc2)cc1NC(=O)/C=C/C(=O)O	Genome polyprotein (dengue virus type 2, UniProt P29990)	IC50	65.2 µM (active)
O=C(CCN1C(=O)S/C(=C/c2ccccc2)C1=O)Nc1ccc(O)c(C(=O)O)c1	Genome polyprotein (dengue virus type 2, UniProt P29990)	IC50	91.6 µM (active)
COc1cc(/C=C2\C(=O)N(c3cccc(C(=O)O)c3)N=C2C)ccc1OCc1ccccc1	Genome polyprotein (dengue virus type 2, UniProt P29990)	IC50	7.99 µM (active)
COc1ccccc1NS(=O)(=O)c1ccc(N/N=C/c2ccccc2OCC(=O)O)c([N+](=O)[O-])c1	Genome polyprotein (dengue virus type 2, UniProt P29990)	IC50	56.5 µM (active)

* * *

- experiment-notes: Luminescence Cell-Based Dose Response HTS to Identify Activators of Luciferase Translation or Activity in H4 […] Cells. [Related pubchem assays: 1829 (Project Summary), 1814 (Primary HTS)]
- Format: functional
Calls of active or inactive are those of the source.
Each item that follows carries a reported EC50.
property-measured: EC50

smiles-str	assay-value
Cc1cc(C)nc(NC(=O)CSc2nc3ccccc3s2)n1	48.4 µM (active)
O=C(NCCc1c[nH]c2ccccc12)c1cnc2sccn2c1=O	53 µM (active)
O=C1C(/C=N/c2ccc(F)cc2)=C(O)c2ccccc21	0.173 µM (active)
O=C(N/N=C/c1ccc(Cl)cc1)c1ccc2c(c1)OCO2	1.87 µM (active)
CC1(C)CC(=O)c2sc(NC(=O)C(C)(C)C)nc2C1	1.31 µM (active)
CCc1n[nH]c(SCc2ccc(OCC(C)C)cc2)n1	10.2 µM (active)
Cc1ccc(N2CN=c3s/c(=C\c4ccccn4)c(=O)n3C2)cc1	29.5 µM (active)
CCc1ccc(OCc2ccc(C(=O)OC)o2)cc1	16.4 µM (active)
